Survival values, listed per item
Study target: Multidrug resistance-associated protein 1 (Homo sapiens, UniProt P33527)
Sequence (P33527 whole entry): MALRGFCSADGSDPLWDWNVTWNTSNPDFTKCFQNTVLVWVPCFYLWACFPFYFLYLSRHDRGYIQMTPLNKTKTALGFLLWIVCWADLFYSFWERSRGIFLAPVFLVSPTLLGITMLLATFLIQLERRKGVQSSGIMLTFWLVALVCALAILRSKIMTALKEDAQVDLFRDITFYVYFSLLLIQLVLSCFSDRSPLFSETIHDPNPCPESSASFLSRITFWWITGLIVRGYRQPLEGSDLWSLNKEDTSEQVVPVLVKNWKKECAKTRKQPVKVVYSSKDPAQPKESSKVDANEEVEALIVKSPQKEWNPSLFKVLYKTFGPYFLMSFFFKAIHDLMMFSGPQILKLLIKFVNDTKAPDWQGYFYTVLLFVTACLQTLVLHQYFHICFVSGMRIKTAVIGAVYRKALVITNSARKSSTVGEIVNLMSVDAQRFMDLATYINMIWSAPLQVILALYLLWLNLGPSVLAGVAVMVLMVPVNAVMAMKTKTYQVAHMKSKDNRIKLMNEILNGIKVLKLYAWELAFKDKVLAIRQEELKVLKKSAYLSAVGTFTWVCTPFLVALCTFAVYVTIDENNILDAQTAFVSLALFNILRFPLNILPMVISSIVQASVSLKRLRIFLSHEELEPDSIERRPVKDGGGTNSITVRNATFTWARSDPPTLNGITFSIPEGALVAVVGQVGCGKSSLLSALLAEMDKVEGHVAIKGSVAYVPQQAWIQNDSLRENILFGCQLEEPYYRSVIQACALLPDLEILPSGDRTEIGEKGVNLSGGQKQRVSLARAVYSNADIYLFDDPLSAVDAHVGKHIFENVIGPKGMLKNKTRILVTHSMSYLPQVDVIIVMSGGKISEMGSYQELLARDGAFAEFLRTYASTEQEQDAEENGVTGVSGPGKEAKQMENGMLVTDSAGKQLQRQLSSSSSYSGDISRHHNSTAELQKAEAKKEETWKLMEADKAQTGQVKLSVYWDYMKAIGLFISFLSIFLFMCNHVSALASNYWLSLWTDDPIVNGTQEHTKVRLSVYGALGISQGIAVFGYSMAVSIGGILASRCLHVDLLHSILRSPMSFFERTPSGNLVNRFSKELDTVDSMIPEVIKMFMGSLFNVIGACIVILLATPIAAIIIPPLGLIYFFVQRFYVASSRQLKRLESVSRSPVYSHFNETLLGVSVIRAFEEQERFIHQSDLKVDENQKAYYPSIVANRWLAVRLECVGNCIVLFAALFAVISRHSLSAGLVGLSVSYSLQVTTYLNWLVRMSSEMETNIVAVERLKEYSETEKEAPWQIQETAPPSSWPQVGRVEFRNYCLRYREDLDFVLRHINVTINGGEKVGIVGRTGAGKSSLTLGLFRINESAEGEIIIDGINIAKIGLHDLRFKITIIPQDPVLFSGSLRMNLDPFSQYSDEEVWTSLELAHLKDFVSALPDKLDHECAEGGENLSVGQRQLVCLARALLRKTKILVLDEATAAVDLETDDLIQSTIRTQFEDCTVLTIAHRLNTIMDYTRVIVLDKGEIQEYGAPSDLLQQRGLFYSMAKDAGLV
Assay summary: Inhibition of MRP1 in human 2008/MRP1 cells assessed as potentiation of doxorubicin-induced cytotoxicity by measuring cell survival at 2 uM after 5 days by MTS assay relative to control
Type: cell-based
Stated conditions: 120 h
Outcome measure: Survival (%)

{"Smiles input": "O=c1cc(-c2ccccc2)oc2cc(OCCn3cc(-c4cccc(-c5cn(CCOc6ccc7occ(-c8ccccc8)c(=O)c7c6)nn5)c4)nn3)ccc12", "Outcome measure": "Survival", "Endpoint result": 90}
{"Smiles input": "O=c1c(OCc2ccccc2)c(-c2cccc(OCCOCCn3cc(-c4ccc(-c5cn(CCOCCOc6cccc(-c7oc8ccccc8c(=O)c7OCc7ccccc7)c6)nn5)cc4)nn3)c2)oc2ccccc12", "Outcome measure": "Survival", "Endpoint result": 82}
{"Smiles input": "O=c1cc(-c2ccc(OCCOCCOCCn3cc(CNc4ccccc4)nn3)cc2)oc2ccc(F)cc12", "Outcome measure": "Survival", "Endpoint result": 90}
{"Smiles input": "O=c1cc(-c2ccc(OCCOCCn3cc(-c4ccc(-c5cn(CCOCCOc6ccc(-c7cc(=O)c8ccccc8o7)cc6)nn5)cc4)nn3)cc2)oc2ccccc12", "Outcome measure": "Survival", "Endpoint result": 81}
{"Smiles input": "O=c1cc(-c2ccc(OCCOCCn3cc(-c4ccc(-c5cn(CCOCCOc6ccc(-c7cc(=O)c8cc(F)ccc8o7)cc6)nn5)cc4)nn3)cc2)oc2ccc(F)cc12", "Outcome measure": "Survival", "Endpoint result": 77}
{"Smiles input": "O=Cc1ccc(OCCCCc2cn(CCOCCOCCOc3ccc(-c4oc5ccccc5c(=O)c4OCc4ccccc4)cc3)nn2)cc1", "Outcome measure": "Survival", "Endpoint result": 75}
{"Smiles input": "O=c1cc(-c2ccc(OCCOCCn3cc(CN4CCN(Cc5cn(CCOCCOc6ccc(-c7cc(=O)c8ccccc8o7)cc6)nn5)CC4)nn3)cc2)oc2ccccc12", "Outcome measure": "Survival", "Endpoint result": 116}
{"Smiles input": "O=c1cc(-c2ccccc2)oc2cc(OCCOCc3cn(CCOCCOCCOc4ccc(-c5cc(=O)c6cc(F)ccc6o5)cc4)nn3)ccc12", "Outcome measure": "Survival", "Endpoint result": 53}
{"Smiles input": "O=c1cc(-c2ccccc2)oc2cc(OCCOCCOCCn3cc(CNc4ccccc4)nn3)ccc12", "Outcome measure": "Survival", "Endpoint result": 90}
{"Smiles input": "Cc1ccc(C(=O)/C=C/c2ccc(OCCCCc3cn(CCOCCOCCOc4ccc5c(=O)cc(-c6ccccc6)oc5c4)nn3)cc2)c(O)c1", "Outcome measure": "Survival", "Endpoint result": 72}
{"Smiles input": "C#CCCCOc1ccc(-c2cc(=O)c3ccc(F)cc3o2)cc1", "Outcome measure": "Survival", "Endpoint result": 79}
{"Smiles input": "COc1cccc(COc2c(-c3ccc(OCCOCCn4cc(-c5ccc(-c6cn(CCOCCOc7ccc(-c8oc9ccccc9c(=O)c8OCc8cccc(OC)c8)cc7)nn6)cc5)nn4)cc3)oc3ccccc3c2=O)c1", "Outcome measure": "Survival", "Endpoint result": 88}
{"Smiles input": "O=C1c2ccccc2C(=O)N1CCc1cn(CCOCCOc2cccc(-c3oc4ccccc4c(=O)c3OCc3ccccc3)c2)nn1", "Outcome measure": "Survival", "Endpoint result": 62}
{"Smiles input": "Cc1ccc2oc(-c3ccc(OCCOCCOCCn4cc(CCCCOc5ccc(/C=C/C(=O)c6ccc(F)cc6O)cc5)nn4)cc3)cc(=O)c2c1", "Outcome measure": "Survival", "Endpoint result": 63}
{"Smiles input": "COc1cccc(COc2c(-c3ccc(OCCOCCn4cc(CCCCOc5ccc(-c6cc(=O)c7cc(C)ccc7o6)cc5)nn4)cc3)oc3ccccc3c2=O)c1", "Outcome measure": "Survival", "Endpoint result": 78}
{"Smiles input": "[N-]=[N+]=NCCOCCOc1cccc(-c2oc3ccccc3c(=O)c2OCc2ccccc2)c1", "Outcome measure": "Survival", "Endpoint result": 86}
{"Smiles input": "O=C(/C=C/c1ccc(OCCCCc2cn(CCOCCOCCOc3ccc4c(=O)cc(-c5ccccc5)oc4c3)nn2)cc1)c1ccccc1O", "Outcome measure": "Survival", "Endpoint result": 72}
{"Smiles input": "COc1cccc(COc2c(-c3ccc(OCCOCCn4cc(CN(Cc5cn(CCOCCOc6ccc(-c7oc8ccccc8c(=O)c7OCc7cccc(OC)c7)cc6)nn5)Cc5cn(CCOCCOc6ccc(-c7oc8ccccc8c(=O)c7OCc7cccc(OC)c7)cc6)nn5)nn4)cc3)oc3ccccc3c2=O)c1", "Outcome measure": "Survival", "Endpoint result": 86}
{"Smiles input": "O=C1c2ccccc2C(=O)N1CCc1cn(CCOCCOCCOc2ccc(-c3cc(=O)c4ccccc4o3)cc2)nn1", "Outcome measure": "Survival", "Endpoint result": 28}
{"Smiles input": "Cc1ccc(C(=O)/C=C/c2ccc(OCCCCc3cn(CCOCCOCCOc4ccc(-c5cc(=O)c6cc(C)ccc6o5)cc4)nn3)cc2)c(O)c1", "Outcome measure": "Survival", "Endpoint result": 61}
{"Smiles input": "Cc1ccc(O)c(C(=O)/C=C/c2ccc(OCCCCc3cn(CCOCCOc4ccc(-c5cc(=O)c6ccccc6o5)cc4)nn3)cc2)c1", "Outcome measure": "Survival", "Endpoint result": 60}
{"Smiles input": "O=c1cc(-c2ccc(OCCOCCn3cc(CNc4ccccc4)nn3)cc2)oc2ccccc12", "Outcome measure": "Survival", "Endpoint result": 90}
{"Smiles input": "O=C1c2ccccc2C(=O)N1CCc1cn(CCOCCOCCOc2ccc(-c3cc(=O)c4cc(F)ccc4o3)cc2)nn1", "Outcome measure": "Survival", "Endpoint result": 28}
{"Smiles input": "CN(CCN(C)Cc1cn(CCOCCOCCOc2ccc(-c3cc(=O)c4ccccc4o3)cc2)nn1)Cc1cn(CCOCCOCCOc2ccc(-c3cc(=O)c4ccccc4o3)cc2)nn1", "Outcome measure": "Survival", "Endpoint result": 71}
{"Smiles input": "Cc1ccc(O)c(C(=O)/C=C/c2ccc(OCCCCc3cn(CCOCCOc4cccc(-c5oc6ccccc6c(=O)c5OCc5ccccc5)c4)nn3)cc2)c1", "Outcome measure": "Survival", "Endpoint result": 78}
{"Smiles input": "O=c1cc(-c2ccccc2)oc2cc(OCCOCCOCCn3cc(CN(Cc4cn(CCOCCOCCOc5ccc6c(=O)cc(-c7ccccc7)oc6c5)nn4)Cc4cn(CCOCCOCCOc5ccc6c(=O)cc(-c7ccccc7)oc6c5)nn4)nn3)ccc12", "Outcome measure": "Survival", "Endpoint result": 77}
{"Smiles input": "O=C(/C=C/c1ccc(OCCCCc2cn(CCOc3cccc4c(=O)cc(-c5ccccc5)oc34)nn2)cc1)c1ccccc1O", "Outcome measure": "Survival", "Endpoint result": 85}

###

Ratio IC50 values, listed per item
Species on record: Homo sapiens
Assay summary: Inhibition of P-gp in human LCC6MDR cells assessed as potentiation of paclitaxel-induced cytotoxicity by measuring fold reduction in paclitaxel IC50 at 1 uM after 5 days by MTS assay relative to paclitaxel alone
Assay type: cell-based

{"Smiles input": "O=c1cc(-c2ccc(OCCOCCn3cc(CCCOc4ccc(-c5cc(=O)c6ccc(F)cc6o5)cc4)nn3)cc2)oc2ccccc12", "Ratio IC50": 63.5}
{"Smiles input": "O=c1cc(-c2ccc(OCCCc3cn(CCOCCOc4ccc5c(=O)cc(-c6ccccc6)oc5c4)nn3)cc2)oc2cc(F)ccc12", "Ratio IC50": 40.7}
{"Smiles input": "O=c1cc(-c2ccc(OCCOCCn3cc(CCCCOc4ccc5c(=O)cc(-c6ccccc6)oc5c4)nn3)cc2)oc2ccccc12", "Ratio IC50": 19.8}
{"Smiles input": "O=c1cc(-c2ccccc2)oc2cc(OCCOCc3cn(CCOCCOCCOc4ccc(-c5oc6ccccc6c(=O)c5OCc5ccccc5)cc4)nn3)ccc12", "Ratio IC50": 46.7}
{"Smiles input": "O=c1cc(-c2ccc(OCCCc3cn(CCOCCOCCOc4ccc(-c5cc(=O)c6cc(F)ccc6o5)cc4)nn3)cc2)oc2cc(F)ccc12", "Ratio IC50": 22.7}
{"Smiles input": "Cc1ccc2oc(-c3ccc(OCCCCc4cn(CCOCCOc5ccc(-c6cc(=O)c7cc(F)ccc7o6)cc5)nn4)cc3)cc(=O)c2c1", "Ratio IC50": 99.2}
{"Smiles input": "Cc1ccc2oc(-c3ccc(OCCOCCOCCn4cc(CCCOc5ccc(-c6cc(=O)c7ccc(F)cc7o6)cc5)nn4)cc3)cc(=O)c2c1", "Ratio IC50": 36.9}
{"Smiles input": "O=c1cc(-c2ccccc2)oc2cc(OCCCc3cn(CCOCCOc4ccc5c(=O)cc(-c6ccccc6)oc5c4)nn3)ccc12", "Ratio IC50": 4}
{"Smiles input": "O=c1cc(-c2ccc(OCCOCCOCCn3cc(CCCOc4ccc(-c5cc(=O)c6ccc(F)cc6o5)cc4)nn3)cc2)oc2ccccc12", "Ratio IC50": 4}
{"Smiles input": "O=c1cc(-c2ccccc2)oc2cc(OCCN(Cc3ccccc3)Cc3cn(CCOCCOc4ccc(-c5cc(=O)c6cc(F)ccc6o5)cc4)nn3)ccc12", "Ratio IC50": 26.5}
{"Smiles input": "Cc1ccc2oc(-c3ccc(OCCCCc4cn(CCOCCOc5ccc(-c6cc(=O)c7ccccc7o6)cc5)nn4)cc3)cc(=O)c2c1", "Ratio IC50": 69}
{"Smiles input": "Cc1ccc2oc(-c3ccc(OCCCCc4cn(CCOCCOCCOc5ccc(-c6cc(=O)c7cc(C)ccc7o6)cc5)nn4)cc3)cc(=O)c2c1", "Ratio IC50": 58.8}
{"Smiles input": "O=c1cc(-c2ccccc2)oc2cc(OCCCc3cn(CCOCCOCCOc4ccc(-c5cc(=O)c6cc(F)ccc6o5)cc4)nn3)ccc12", "Ratio IC50": 16}
{"Smiles input": "O=c1cc(-c2ccc(OCCOCCn3cc(COCCOc4ccc5c(=O)cc(-c6ccccc6)oc5c4)nn3)cc2)oc2ccccc12", "Ratio IC50": 3.3}
